viability, T/C: recorded values
Tested on: 695427-040-R-J1-PDC complex spheroid viability
Test: Anticancer human tumor 695427-040-R-J1-PDC patient-derived colon adenocarcinoma cell line growth inhibition [POLQ]
Conditions: second compound 0.316 µM; first compound 0.1 µM; stronger effect = lower value
Method: Multicellular complex tumor spheroid response to Polymerase (POL) inhibitors (novobiocin, ART-558, RP6685) in combination with a variety of drugs and investigational agents in selected tumor cell lines The POL inhibitors (novobiocin, ART-558, and RP6685) were evaluated both individually and in combination with standard of care and investigational anticancer small molecules within a complex spheroid model of solid tumors. . […]
Quick reminder: number only, in %, skip the unit.

Use these answered entries as a reference point.
CCc1cc2c(N3CCc4c(cc(Cn5ccnc5)cc4-c4cn(C)nc4C(F)(F)F)C3=O)ccnc2c(OC)n1 + Nc1ccc(C#CCN(C(=O)Cc2ncc(C(F)(F)F)cc2C(F)(F)F)c2ccc(F)cc2)nn1 : 115
CCc1cc2c(N3CCc4c(cc(Cn5ccnc5)cc4-c4cn(C)nc4C(F)(F)F)C3=O)cc(C)nc2c(OC)n1 + Nc1ccc(C#CCN(C(=O)Cc2ncc(C(F)(F)F)cc2C(F)(F)F)c2ccc(F)cc2)nn1 : 98.9
CC1COCCN1c1cc(C2(O)CC3CCC(C2)O3)c2cnn(-c3ccn[nH]3)c2n1 (stereo unspecified) + Nc1ccc(C#CCN(C(=O)Cc2ncc(C(F)(F)F)cc2C(F)(F)F)c2ccc(F)cc2)nn1 : 96.7
CC1COCCN1c1cc(-c2ccnn2C)c2ccnc(-c3ccn[nH]3)c2n1 (stereo unspecified) + Nc1ccc(C#CCN(C(=O)Cc2ncc(C(F)(F)F)cc2C(F)(F)F)c2ccc(F)cc2)nn1 : 92.7
COc1cc2cc(C(=O)CCC(=O)O)sc2cc1OC + COC1C(OC(N)=O)C(O)C(Oc2ccc3c(O)c(NC(=O)c4ccc(O)c(CC=C(C)C)c4)c(=O)oc3c2C)OC1(C)C : 105

Item: COc1cccc2c1C(=O)c1c(O)c3c(c(O)c1C2=O)CC(O)(C(=O)CO)CC3OC1CC(N)C(O)C(C)O1 (stereo unspecified) + COC1C(OC(N)=O)C(O)C(Oc2ccc3c(O)c(NC(=O)c4ccc(O)c(CC=C(C)C)c4)c(=O)oc3c2C)OC1(C)C | viability, T/C: 91.6

Item: CC1COCCN1c1cc(C2(O)CC3CCC(C2)O3)c2cnn(-c3ccn[nH]3)c2n1 (stereo unspecified) + COC1C(OC(N)=O)C(O)C(Oc2ccc3c(O)c(NC(=O)c4ccc(O)c(CC=C(C)C)c4)c(=O)oc3c2C)OC1(C)C | viability, T/C: 84.7

Item: CCc1c2c(nc3ccc(O)cc13)-c1cc3c(c(=O)n1C2)COC(=O)[C@]3(O)CC + Nc1ccc(C#CCN(C(=O)Cc2ncc(C(F)(F)F)cc2C(F)(F)F)c2ccc(F)cc2)nn1 | viability, T/C: 92.6

* * *

System: 695427-040-R-J1-PDC complex spheroid viability
Test: Anticancer human tumor 695427-040-R-J1-PDC cell line growth inhibition [POLQ];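 note: spheroids exposed to compounds for seven days; 100% = DMSO vehicle control viability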
Conditions: second compound 0.316 µM; first compound 0.316 µM; stronger effect = lower value
viability, T/C: recorded values
Quick reminder: number only, in %, skip the unit.

Use these answered entries as a reference point.
CNCc1ccc(-c2[nH]c3cc(F)cc4c3c2CCNC4=O)cc1 + Nc1ccc(C#CCN(C(=O)Cc2ncc(C(F)(F)F)cc2C(F)(F)F)c2ccc(F)cc2)nn1 : 96.1
C=CCn1c(=O)c2cnc(Nc3ccc(N4CCN(C)CC4)cc3)nc2n1-c1cccc(C(C)(C)O)n1 + Cc1cccc(N(C)C(=O)C2C(O)CCN2c2nc(C)cc(C(F)(F)F)c2C#N)c1 : 107
C=CC(=O)N1CCN(c2nc(=O)n(-c3c(C)ccnc3C(C)C)c3nc(-c4c(O)cccc4F)c(F)cc23)C(C)C1 (stereo not given) + Nc1ccc(C#CCN(C(=O)Cc2ncc(C(F)(F)F)cc2C(F)(F)F)c2ccc(F)cc2)nn1 : 102
C=CCn1c(=O)c2cnc(Nc3ccc(N4CCN(C)CC4)cc3)nc2n1-c1cccc(C(C)(C)O)n1 + Nc1ccc(C#CCN(C(=O)Cc2ncc(C(F)(F)F)cc2C(F)(F)F)c2ccc(F)cc2)nn1 : 91.4
COc1cccc(OCCCN)c1-c1cc(Nc2cnc(C#N)cn2)n[nH]1 + Nc1ccc(C#CCN(C(=O)Cc2ncc(C(F)(F)F)cc2C(F)(F)F)c2ccc(F)cc2)nn1 : 73.6
CCCS(=O)(=O)Nc1ccc(F)c(C(=O)c2c[nH]c3ncc(-c4ccc(Cl)cc4)cc23)c1F + Cc1cccc(N(C)C(=O)C2C(O)CCN2c2nc(C)cc(C(F)(F)F)c2C#N)c1 : 96.3

Item: COc1cccc2c1C(=O)c1c(O)c3c(c(O)c1C2=O)CC(O)(C(=O)CO)CC3OC1CC(N)C(O)C(C)O1 (stereo not given) + COC1C(OC(N)=O)C(O)C(Oc2ccc3c(O)c(NC(=O)c4ccc(O)c(CC=C(C)C)c4)c(=O)oc3c2C)OC1(C)C | viability, T/C: 84

Item: CC1COCCN1c1cc(C2(O)CC3CCC(C2)O3)c2cnn(-c3ccn[nH]3)c2n1 (stereo not given) + COC1C(OC(N)=O)C(O)C(Oc2ccc3c(O)c(NC(=O)c4ccc(O)c(CC=C(C)C)c4)c(=O)oc3c2C)OC1(C)C | viability, T/C: 83.7

Item: CC1COCCN1c1cc(C2(O)CC3CCC(C2)O3)c2cnn(-c3ccn[nH]3)c2n1 (stereo not given) + Nc1ccc(C#CCN(C(=O)Cc2ncc(C(F)(F)F)cc2C(F)(F)F)c2ccc(F)cc2)nn1 | viability, T/C: 76.7

Item: CCCS(=O)(=O)Nc1ccc(F)c(C(=O)c2c[nH]c3ncc(-c4ccc(Cl)cc4)cc23)c1F + Nc1ccc(C#CCN(C(=O)Cc2ncc(C(F)(F)F)cc2C(F)(F)F)c2ccc(F)cc2)nn1 | viability, T/C: 107
